Each record here notes measured Neutralization IC50, H1-FM47.
target-or-system: HA of A/Fort Monmouth/1/47 (H1N1) virus (influenza A virus)
assay-overview: cell-based or functional assay
Supply the numeric figure in µg/mL, leaving out any unit text.

Input: So what does the record say about Neutralization IC50, H1-FM47 for Antibody 5 (antibody, V domains shown) VH: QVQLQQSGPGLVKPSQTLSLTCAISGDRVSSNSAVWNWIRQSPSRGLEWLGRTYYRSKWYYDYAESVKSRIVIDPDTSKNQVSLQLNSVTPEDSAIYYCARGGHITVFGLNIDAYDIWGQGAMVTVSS VL: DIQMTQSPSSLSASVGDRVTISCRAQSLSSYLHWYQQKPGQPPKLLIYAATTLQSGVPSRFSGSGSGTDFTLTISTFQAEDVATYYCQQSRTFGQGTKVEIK ?
Output: 0.86

Input: Repeat with Antibody 3 (antibody, V domains shown) VH: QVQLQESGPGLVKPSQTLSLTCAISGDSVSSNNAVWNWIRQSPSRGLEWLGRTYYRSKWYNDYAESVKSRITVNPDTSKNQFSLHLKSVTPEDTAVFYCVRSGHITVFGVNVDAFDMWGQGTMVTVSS VL: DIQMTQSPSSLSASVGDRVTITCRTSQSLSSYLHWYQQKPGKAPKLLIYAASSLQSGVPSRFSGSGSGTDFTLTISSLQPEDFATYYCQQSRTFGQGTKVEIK
Output: 0.92

Further cases:
Input: So what does the record say about Neutralization IC50, H1-FM47 for Antibody 10 (antibody, V domains shown) VH: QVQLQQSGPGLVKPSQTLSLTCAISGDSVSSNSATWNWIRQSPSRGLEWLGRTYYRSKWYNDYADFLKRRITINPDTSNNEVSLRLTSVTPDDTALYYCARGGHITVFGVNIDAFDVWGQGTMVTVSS VL: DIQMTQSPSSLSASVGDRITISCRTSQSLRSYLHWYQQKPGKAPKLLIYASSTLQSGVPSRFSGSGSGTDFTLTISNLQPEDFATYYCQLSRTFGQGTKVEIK ?
Output: 1.11
